D(2) dopamine receptor (Homo sapiens) data, read-out T1/2

molecule	tested-on	T1/2 [s]
O=C(CCCN1CCC(O)(c2ccc(F)cc2)CC1)c1ccc(F)cc1	D(2) dopamine receptor (Homo sapiens)	55.2
OC1(c2ccc(Cl)cc2)CCN(CCC#Cc2ccc(F)cc2)CC1	D(2) dopamine receptor (Homo sapiens)	41.4
OC1(c2ccc(Cl)cc2)CCN(CCCSc2ccc(F)cc2)CC1	D(2) dopamine receptor (Homo sapiens)	44.4
O=C(CCCN1CCC(O)(c2ccc(Cl)cc2Cl)CC1)c1ccc(F)cc1	D(2) dopamine receptor (Homo sapiens)	69
OC1(c2ccc(Cl)cc2)CCN(CCCCCc2ccc(F)cc2)CC1	D(2) dopamine receptor (Homo sapiens)	36
OC1(c2ccc(Cl)cc2)CCN(CC#Cc2ccc(F)cc2)CC1	D(2) dopamine receptor (Homo sapiens)	46.2
OC(CCCN1CCC(O)(c2ccc(Cl)cc2)CC1)c1ccc(F)cc1 (configuration not stated)	D(2) dopamine receptor (Homo sapiens)	75
O=C(CCCN1CCC(O)(c2ccc(Cl)cc2)CC1)c1c(F)cccc1F	D(2) dopamine receptor (Homo sapiens)	39.6
OC1(c2ccc(Cl)cc2)CCN(CCCCc2ccc(F)cc2)CC1	D(2) dopamine receptor (Homo sapiens)	37.8
COC1(c2ccc(Cl)cc2)CCN(CCCC(=O)c2ccc(F)cc2)CC1	D(2) dopamine receptor (Homo sapiens)	61.8
O=C(CCCN1CCC(O)(c2ccc(Cl)cc2)CC1)c1ccccc1F	D(2) dopamine receptor (Homo sapiens)	41.4
O=C(CCCN1CCC(O)(c2cc(Cl)ccc2Cl)CC1)c1ccc(F)cc1	D(2) dopamine receptor (Homo sapiens)	76.2
O=C(CCCN1CCC(O)(c2ccc(Cl)cc2)CC1)c1ccc(F)c(F)c1	D(2) dopamine receptor (Homo sapiens)	45
O=C(CCCN1CCC(O)(c2ccc(Cl)cc2)CC1)c1ccc(Cl)cc1	D(2) dopamine receptor (Homo sapiens)	60
O=C(CCCN1CCC(O)(c2ccc(Cl)c(Cl)c2)CC1)c1ccc(F)cc1	D(2) dopamine receptor (Homo sapiens)	100
OC1(c2ccc(Cl)cc2)CCN(CCCOc2ccc(F)cc2)CC1	D(2) dopamine receptor (Homo sapiens)	48.6
O=C(CCCN1CCC(O)(c2ccc(Cl)cc2)CC1)c1ccc(F)cc1F	D(2) dopamine receptor (Homo sapiens)	30.6
O=C(CCCN1CCC(O)(c2ccc(Cl)cc2)CC1)c1ccccc1	D(2) dopamine receptor (Homo sapiens)	40.2
OC1(c2ccc(Cl)cc2)CCN(CC[C@H]2C[C@H]2c2ccc(F)cc2)CC1 (racemic)	D(2) dopamine receptor (Homo sapiens)	30.6
O=C(CCCN1[C@@H]2CC[C@H]1CC(O)(c1ccc(Cl)cc1)C2)c1ccc(F)cc1 (some centres not stated)	D(2) dopamine receptor (Homo sapiens)	215
O=C(CCCN1CCC(O)(c2cccc(Cl)c2)CC1)c1ccc(F)cc1	D(2) dopamine receptor (Homo sapiens)	71.4

----------
Biological target: D(2) dopamine receptor (Homo sapiens, UniProt P14416)
Sequence (P14416 whole entry): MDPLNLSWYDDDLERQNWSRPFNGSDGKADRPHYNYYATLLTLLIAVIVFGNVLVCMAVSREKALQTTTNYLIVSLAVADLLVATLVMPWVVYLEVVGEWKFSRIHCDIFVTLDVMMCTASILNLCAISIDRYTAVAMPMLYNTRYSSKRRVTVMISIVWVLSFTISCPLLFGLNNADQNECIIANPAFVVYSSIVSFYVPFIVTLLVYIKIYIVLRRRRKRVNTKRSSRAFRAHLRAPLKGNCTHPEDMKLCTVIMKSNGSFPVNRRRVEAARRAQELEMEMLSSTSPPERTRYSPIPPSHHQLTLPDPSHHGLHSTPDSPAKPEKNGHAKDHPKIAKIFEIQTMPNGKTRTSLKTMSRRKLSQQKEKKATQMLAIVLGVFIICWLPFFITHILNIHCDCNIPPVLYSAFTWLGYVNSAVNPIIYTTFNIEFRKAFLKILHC
Entries and their Kdiss

compound	Kdiss / s⁻¹
OC1(c2ccc(Cl)cc2)CCN(CC/C=C\c2ccc(F)cc2)CC1	0.0208
O=C(CCCN1CCC(O)(c2ccc(Cl)cc2Cl)CC1)c1ccc(F)cc1	0.0117
O=C(CCCN1CCC(O)(c2cccc(Cl)c2)CC1)c1ccc(F)cc1	0.0107
OC1(c2ccc(Cl)cc2)CCN(CC#Cc2ccc(F)cc2)CC1	0.016
OC1(c2ccc(Cl)cc2)CCN(CC[C@H]2C[C@@H]2c2ccc(F)cc2)CC1 (racemic)	0.0153
Cc1ccc(C2(O)CCN(CCCC(=O)c3ccc(F)cc3)CC2)cc1	0.0163
O=C(CCCN1CCC(O)(c2ccccc2Cl)CC1)c1ccc(F)cc1	0.0193
O=C(CCCN1CCC(O)(c2ccc(Cl)cc2)CC1)c1cc(F)cc(F)c1	0.0153
O=C(CCCN1CCC(O)(c2ccccc2-c2ccccc2Cl)CC1)c1ccc(F)cc1	0.0137

----------
Entries and their Ka
Target: D(2) dopamine receptor (Homo sapiens, UniProt P14416)
readout-name: Ka (×10⁷ /M/min)

smiles	readout-name	value
O=C(CCCN1CC=C(c2ccc(Cl)cc2)CC1)c1ccc(F)cc1	Ka	6.52
O=C(CCCN1CCC(c2ccccc2)CC1)c1ccc(F)cc1	Ka	8.99
OC1(c2ccc(Cl)cc2)CCN(CC/C=C/c2ccc(F)cc2)CC1	Ka	6.39

----------
D(2) dopamine receptor (Homo sapiens, UniProt P14416) data, read-out Ka
readout-name: Ka (×10⁷ /M/min)

smiles	value
OC1(c2ccc(Cl)cc2)CCN(CCC#Cc2ccc(F)cc2)CC1	1.61
O=C(CCCN1CCC(O)(c2ccc(Cl)cc2)CC1)c1c(F)cccc1F	1.84
O=C(CCCN1CCC(O)(c2ccc(Cl)cc2)CC1)c1ccc(F)cc1F	1.07

----------
D(2) dopamine receptor (Homo sapiens, UniProt P14416) data, read-out Ka

smiles	Ka, ×10⁸ /M/min
O=C(CCCN1CCC(O)(c2ccccc2Cl)CC1)c1ccc(F)cc1	3.54
COC1(c2ccc(Cl)cc2)CCN(CCCC(=O)c2ccc(F)cc2)CC1	3.6
O=C(CCCN1CCC(O)(c2cccc(Cl)c2)CC1)c1ccc(F)cc1	6.32
OC1(c2ccc(Cl)cc2)CCN(CCCSc2ccc(F)cc2)CC1	4.99
O=C(CCCN1CCC(O)(c2ccc(Cl)cc2Cl)CC1)c1ccc(F)cc1	2.87
O=C(CCCN1CCC(O)(c2ccc(Cl)cc2)CC1)c1ccc(Cl)cc1	1.38
CN(C)c1ccc(C2(O)CCN(CCCC(=O)c3ccc(F)cc3)CC2)cc1	1.64

----------
Entries and their Ka
Target: D(2) dopamine receptor (Homo sapiens)

compound	Ka
Cc1ccccc1C(=O)CCCN1CCC(O)(c2ccc(Cl)cc2)CC1	3.66 ×10⁸ /M/min
O=C(CCCN1[C@@H]2CC[C@H]1CC(O)(c1ccc(Cl)cc1)C2)c1ccc(F)cc1 (stereo not given in full)	3.68 ×10⁹ /M/min
O=C(CCCN1CCC(O)(c2cc(Cl)ccc2Cl)CC1)c1ccc(F)cc1	5.29 ×10⁸ /M/min
O=C(CCCN1CCC(O)(c2ccc(F)cc2)CC1)c1ccc(Cl)cc1	4.17 ×10⁷ /M/min
O=C(CCCCN1CCC(O)(c2ccc(Cl)cc2)CC1)c1ccc(F)cc1	1.42 to 1.8 ×10⁸ /M/min
OC1(c2ccc(Cl)cc2)CCN(CC/C=C\c2ccc(F)cc2)CC1	3.35 ×10⁷ /M/min
Cc1ccc(C2(O)CCN(CCCC(=O)c3ccc(F)cc3)CC2)cc1	1 ×10⁹ /M/min
O=C(CCCN1CCC(O)(c2ccc(Cl)cc2)CC1)c1cccc(F)c1F	3.01 to 3.24 ×10⁷ /M/min
O=C(CCCN1CCC(O)(c2ccc(Cl)cc2)CC1)c1ccccc1	6.33 ×10⁸ /M/min
O=C(CCCN1CCC(O)(c2ccccc2)CC1)c1ccccc1	2.28 ×10⁷ /M/min
O=C(CCCN1CCC(O)(c2ccc(F)cc2)CC1)c1ccc(F)cc1	2.61 ×10⁸ /M/min
O=C(CCCN1CCC(O)(c2cccc(Cl)c2Cl)CC1)c1ccc(F)cc1	2.2 ×10⁹ /M/min
O=C(CCCN1CCC(O)(c2ccc(Cl)cc2)CC1)c1ccccc1Cl	3.16 ×10⁸ /M/min
O=C(CCCN1CCC(O)(c2ccc(Cl)cc2)CC1)c1cccc(F)c1	2.55 to 2.64 ×10⁷ /M/min
O=C(CCN1CCC(O)(c2ccc(Cl)cc2)CC1)c1ccc(F)cc1	1.03 to 1.33 ×10⁷ /M/min
OC1(c2ccc(Cl)cc2)CCN(CC[C@H]2C[C@H]2c2ccc(F)cc2)CC1 (racemic)	4.47 ×10⁷ /M/min
O=C(CCCN1CCC(c2ccc(Cl)cc2)CC1)c1ccc(F)cc1	4.31 ×10⁸ /M/min
O=C(CCCN1CCC(O)(c2cc(Cl)cc(Cl)c2)CC1)c1ccc(F)cc1	6.58 ×10⁸ /M/min
O=C(CCCN1CCN(c2ccc(Cl)cc2)CC1)c1ccc(F)cc1	2.86 ×10⁷ /M/min
O=C(CCCN1CCC(O)(c2ccc(Cl)cc2)CC1)c1cc(F)ccc1F	1.13 to 1.15 ×10⁷ /M/min

----------
Entries and their Ka
Target: D(2) dopamine receptor (Homo sapiens)
readout-name: Ka

smiles	value
O=C(CCCN1CCC(O)(c2ccccc2)CC1)c1ccc(F)cc1	1.22 ×10⁸ /M/min
OC1(c2ccc(Cl)cc2)CCN(CC#Cc2ccc(F)cc2)CC1	3.37 ×10⁶ /M/min
O=C(CCCN1CCC(O)(c2ccc(Cl)c(Cl)c2)CC1)c1ccc(F)cc1	2.95 ×10⁹ /M/min
O=C(CCCN1CCC(O)(c2ccccc2-c2ccccc2Cl)CC1)c1ccc(F)cc1	3.25 ×10⁸ /M/min
OC1(c2ccc(Cl)cc2)CCN(CCCOc2ccc(F)cc2)CC1	1.22 ×10⁹ /M/min
OC1(c2ccc(Cl)cc2)CCN(CCCCCc2ccc(F)cc2)CC1	5.51 ×10⁷ /M/min

----------
Biological target: UniProt P14416
Would you please tag the item Criterion met when its T1/2 is 50 s or above, and Criterion not met when it is below?

smiles	tested-on	group
O=C(CCCN1CCC(O)(c2ccc(Cl)cc2)CC1)c1ccccc1Cl	UniProt P14416	Criterion not met
O=C(CCCN1CCC(O)(c2ccccc2)CC1)c1ccc(F)cc1	UniProt P14416	Criterion not met
O=C(CCCN1CCC(O)(c2c(Cl)cccc2Cl)CC1)c1ccc(F)cc1	UniProt P14416	Criterion not met
O=C(CCCN1CCC(O)(c2ccc(C(F)(F)F)cc2)CC1)c1ccc(F)cc1	UniProt P14416	Criterion met
O=C(CCCN1CCC(O)(c2ccc(F)cc2)CC1)c1ccc(Cl)cc1	UniProt P14416	Criterion met
Cc1ccc(C2(O)CCN(CCCC(=O)c3ccc(F)cc3)CC2)cc1	UniProt P14416	Criterion not met
O=C(CCCN1CCC(O)(c2ccccc2)CC1)c1ccccc1	UniProt P14416	Criterion met
CN(C)c1ccc(C2(O)CCN(CCCC(=O)c3ccc(F)cc3)CC2)cc1	UniProt P14416	Criterion not met
Cc1ccccc1C(=O)CCCN1CCC(O)(c2ccc(Cl)cc2)CC1	UniProt P14416	Criterion met
